Would you mind telling me the reported MIC of each entry?
- Test system: Enterococcus faecalis
- assayText: Antibacterial activity against vancomycin-susceptible Enterococcus faecalis ATCC 29212
- Assay type: functional
Numeric answer only, unit µg/mL assumed.

CC(=O)c1c(OCCCN(C)C)c2c(c3c1OC(C)(CCC=C(C)C)C=C3)OC(C)(CCC=C(C)C)C=C2 (stereo not drawn) has a reported MIC of 1

CC(=O)c1ccc2c(c1OCC(=O)NCCCN1CCN(C)CC1)C=CC(C)(CCC=C(C)C)O2 (stereo not drawn) has a reported MIC of 128

CC(=O)c1ccc2c(c1OCC(=O)NCCCN1CCOCC1)C=CC(C)(CCC=C(C)C)O2 (stereo not drawn) has a reported MIC of 128

* * *

- System: Pseudomonas aeruginosa
- assayText: Antibacterial activity against penicillin-susceptible Pseudomonas aeruginosa ATCC 27853
- Format: functional
Would you mind telling me the reported MIC of each entry?

CNCCCOc1ccc(/C=C/C(=O)c2ccc3c(c2OC)C=CC(C)(CCC=C(C)C)O3)cc1 (centres undefined) has a reported MIC of > 128 µg/mL

CC(=O)c1ccc2c(c1OCC(=O)NCCCN1CCOCC1)C=CC(C)(CCC=C(C)C)O2 (centres undefined) has a reported MIC of > 128 µg/mL

COc1c(C(=O)/C=C/c2ccc(OCCCN(C)CCCN(C)C)cc2)ccc2c1C=CC(C)(CCC=C(C)C)O2 (centres undefined) has a reported MIC of > 128 µg/mL

CCCCN(CCCC)CCCNC(=O)COc1c(C(C)=O)ccc2c1C=CC(C)(CCC=C(C)C)O2 (centres undefined) has a reported MIC of > 128 µg/mL

CCN(CC)CCCNCCCOc1c(C(C)=O)ccc2c1C=CC(C)(CCC=C(C)C)O2 (centres undefined) has a reported MIC of 16 µg/mL

CCCCN(CCCC)CCCNCCCOc1c(C(C)=O)ccc2c1C=CC(C)(CCC=C(C)C)O2 (centres undefined) has a reported MIC of 32 µg/mL

CC(=O)c1c(OCCCN2CCSCC2)c2c(c3c1OC(C)(CCC=C(C)C)C=C3)OC(C)(CCC=C(C)C)C=C2 (centres undefined) has a reported MIC of > 128 µg/mL

CC(=O)c1ccc2c(c1OCC(=O)NCCCN1CCCC1)C=CC(C)(CCC=C(C)C)O2 (centres undefined) has a reported MIC of > 128 µg/mL

CC(=O)c1c(OCCCNCCN(C)C)c2c(c3c1OC(C)(CCC=C(C)C)C=C3)OC(C)(CCC=C(C)C)C=C2 (centres undefined) has a reported MIC of 32 µg/mL

* * *

- Test system: Klebsiella pneumoniae
- assayText: Antibacterial activity against Klebsiella pneumoniae ATCC 10031
- Format: functional
Please respond with yes (1) when measured MIC is strictly beneath 20 µg/mL, and with no (0) in all other cases.

Does the reported MIC of CC(=O)c1ccc2c(c1OCCCN1CCCC1)C=CC(C)(CCC=C(C)C)O2 (configuration not stated) stay below 20 µg/mL?
yes (1)

Does the reported MIC of COc1c(C(=O)/C=C/c2ccc(OCCCN)cc2)ccc2c1C=CC(C)(CCC=C(C)C)O2 (configuration not stated) stay below 20 µg/mL?
yes (1)

Does the reported MIC of CC(=O)c1ccc2c(c1OCCCN(CCCN(C)C)CCCN(C)C)C=CC(C)(CCC=C(C)C)O2 (configuration not stated) stay below 20 µg/mL?
yes (1)

Does the reported MIC of CN[C@H](CC(C)C)C(=O)N[C@H]1C(=O)N[C@@H](CC(N)=O)C(=O)N[C@H]2C(=O)N[C@H]3C(=O)N[C@H](C(=O)N[C@H](C(=O)O)c4cc(O)cc(O)c4-c4cc3ccc4O)[C@H](O)c3ccc(c(Cl)c3)Oc3cc2cc(c3O[C@@H]2O[C@H](CO)[C@@H](O)[C@H](O)[C@H]2O[C@H]2C[C@](C)(N)[C@H](O)[C@H](C)O2)Oc2ccc(cc2Cl)[C@H]1O stay below 20 µg/mL?
no (0)

Does the reported MIC of CC(=O)c1ccc2c(c1OCC(=O)NCCCN1CCCC1)C=CC(C)(CCC=C(C)C)O2 (configuration not stated) stay below 20 µg/mL?
no (0)

Does the reported MIC of CC(=O)c1ccc2c(c1OCC(=O)NCCCN1CCOCC1)C=CC(C)(CCC=C(C)C)O2 (configuration not stated) stay below 20 µg/mL?
no (0)

Does the reported MIC of CCCCN(CCCC)CCCNCCCOc1c(C(C)=O)ccc2c1C=CC(C)(CCC=C(C)C)O2 (configuration not stated) stay below 20 µg/mL?
yes (1)

Does the reported MIC of CC(=O)c1ccc2c(c1OCCCN(C)CCCN(C)C)C=CC(C)(CCC=C(C)C)O2 (configuration not stated) stay below 20 µg/mL?
yes (1)

Does the reported MIC of COc1c(C(=O)/C=C/c2ccc(OCCCNCCN(C)C)cc2)ccc2c1C=CC(C)(CCC=C(C)C)O2 (configuration not stated) stay below 20 µg/mL?
yes (1)

Does the reported MIC of CCNCCCOc1ccc(/C=C/C(=O)c2ccc3c(c2OC)C=CC(C)(CCC=C(C)C)O3)cc1 (configuration not stated) stay below 20 µg/mL?
no (0)

Does the reported MIC of CNCCCOc1c(C(C)=O)ccc2c1C=CC(C)(CCC=C(C)C)O2 (configuration not stated) stay below 20 µg/mL?
yes (1)

Does the reported MIC of CCCCN(CCCC)CCCNCCCOc1ccc(/C=C/C(=O)c2ccc3c(c2OC)C=CC(C)(CCC=C(C)C)O3)cc1 (configuration not stated) stay below 20 µg/mL?
yes (1)

Does the reported MIC of CC(=O)c1ccc2c(c1OCC(=O)NCCN(C)C)C=CC(C)(CCC=C(C)C)O2 (configuration not stated) stay below 20 µg/mL?
no (0)

Does the reported MIC of CC(=O)c1ccc2c(c1OCC(=O)NCCCN1CCN(C)CC1)C=CC(C)(CCC=C(C)C)O2 (configuration not stated) stay below 20 µg/mL?
no (0)

Does the reported MIC of CC(=O)c1ccc2c(c1OCCCN1CCSCC1)C=CC(C)(CCC=C(C)C)O2 (configuration not stated) stay below 20 µg/mL?
no (0)

Does the reported MIC of CC(=O)c1ccc2c(c1OCCCN(C)C)C=CC(C)(CCC=C(C)C)O2 (configuration not stated) stay below 20 µg/mL?
yes (1)

Does the reported MIC of CCCCN(CCCC)CCCNC(=O)COc1c(C(C)=O)ccc2c1C=CC(C)(CCC=C(C)C)O2 (configuration not stated) stay below 20 µg/mL?
no (0)
